Entry source: ChEMBL document CHEMBL5252597

pIC50: −log10 of the molar value.
So I've got a bunch of compounds here, and I need their pIC50 values.

Enquiry: Which pIC50 is reported with Cytochrome P450 1A2 (Homo sapiens, UniProt P05177) for this entry: `Cc1cccc(-c2[nH]c(NCc3ccc(F)c(F)c3)nc2-c2ccc3[nH]ncc3c2)n1` ?
Return: 5.07

Enquiry: For Cytochrome P450 1A2 (Homo sapiens, UniProt P05177), provide pIC50 of `Cc1cccc(-c2[nH]c(NCc3cccc(F)c3)nc2-c2ccc3c(cnn3C)c2)n1` please.
Return: < 5.00

Enquiry: Item: `Cc1cccc(-c2[nH]c(NCc3cccc(Cl)c3F)nc2-c2ccc3[nH]ncc3c2)n1` Test system: Cytochrome P450 1A2 (Homo sapiens, UniProt P05177) Read-out: pIC50 Value: ?
Return: < 5.00

Enquiry: Checklist item: pIC50 tested on Cytochrome P450 1A2 (Homo sapiens, UniProt P05177), entry `Cc1cccc(-c2[nH]c(NCc3cccc(F)c3)nc2-c2ccc3c(cnn3C(F)F)c2)n1` , value?
Return: 5.07

Enquiry: Missing value: pIC50, Cytochrome P450 1A2 (Homo sapiens, UniProt P05177), entry `Cc1cccc(-c2[nH]c(NCc3ccc(Cl)c(Cl)c3)nc2-c2ccc3[nH]ncc3c2)n1` . Fill in?
Return: < 5.00

Enquiry: What reported pIC50 corresponds to `Cc1cccc(-c2[nH]c(NCc3cccc(F)c3)nc2-c2ccc3[nH]ncc3c2)n1` on Cytochrome P450 1A2 (Homo sapiens, UniProt P05177)?
Return: < 5.00
